- System: uninfected RBCs
- EXPERIMENT: Cellular phosphatidylserine exposure assay (annexin V flow cytometry);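 further: flow cytometry recording 10,000 events per condition, gated on single cells, with the two experiments using blood from separate donors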
- CONDITION INFO: 24h, 5x P. falciparum 3D7-IC50, % of RBCs, mean of 2 experiments
Structures can show the parent of a compound that is named as a salt.
# Phosphatidylserine exposure (%) 24h annotations
QUANTITY NAME: Phosphatidylserine exposure (%) 24h

compound=CN1CCN(c2nc(C3=C(c4c[nH]c5ccccc45)C(=O)NC3=O)c3ccccc3n2)CC1 quantity_name="Phosphatidylserine exposure (%) 24h" endpoint_result=2
compound=Cn1nccc1Nc1nccc(-c2cc3c(s2)C(C)(C)N(CCN2CCOCC2)C3=O)n1 quantity_name="Phosphatidylserine exposure (%) 24h" endpoint_result=2
compound=Cc1ccc(NC(=O)c2ccc(CN3CC[C@H](N(C)C)C3)c(C(F)(F)F)c2)cc1Nc1nccc(-c2cncnc2)n1 quantity_name="Phosphatidylserine exposure (%) 24h" endpoint_result=2
compound="COc1ccc(S(=O)(=O)N(CCO)c2ccccc2CN(C)C/C=C/c2ccc(Cl)cc2)cc1 [KN-93 Phosphate]" quantity_name="Phosphatidylserine exposure (%) 24h" endpoint_result=2
compound=CCCC[C@@H](C=O)NC(=O)[C@H](CC(C)C)NC(=O)OCc1ccccc1 quantity_name="Phosphatidylserine exposure (%) 24h" endpoint_result=2
compound="Cc1ccc(NC(=O)c2ccc(CN3CCN(C)CC3)cc2)cc1Nc1nccc(-c2cccnc2)n1 [Imatinib mesylate]" quantity_name="Phosphatidylserine exposure (%) 24h" endpoint_result=2
compound=N#CC(=C(N)Sc1ccccc1N)C(C#N)=C(N)Sc1ccccc1N quantity_name="Phosphatidylserine exposure (%) 24h" endpoint_result=2
compound=COc1ccc2c(c1)c(C1=C(c3c[nH]c4ccccc34)C(=O)NC1=O)cn2CCCN(C)C quantity_name="Phosphatidylserine exposure (%) 24h" endpoint_result=2
compound=O=C(O)c1ccc2c(c1)nc(Nc1cccc(Cl)c1)c1ccncc12 quantity_name="Phosphatidylserine exposure (%) 24h" endpoint_result=2
compound="COc1ccc2c(c1)CCC1C2CCC2(C)C(NCCCCCCN3C(=O)C=CC3=O)CCC12 (centres unmarked)" quantity_name="Phosphatidylserine exposure (%) 24h" endpoint_result=5
compound="Clc1ccc(C(c2ccc(Cl)cc2)n2cc[n+](CC(OCc3ccc(Cl)cc3Cl)c3ccc(Cl)cc3Cl)c2)cc1 (centres unmarked)" quantity_name="Phosphatidylserine exposure (%) 24h" endpoint_result=3
compound=CC(=O)Nc1cccc(-n2c(=O)n(C3CC3)c(=O)c3c(Nc4ccc(I)cc4F)n(C)c(=O)c(C)c32)c1 quantity_name="Phosphatidylserine exposure (%) 24h" endpoint_result=2
compound=CCCCCCCCc1ccc(CCC(N)(CO)CO)cc1 quantity_name="Phosphatidylserine exposure (%) 24h" endpoint_result=4
compound=CN(C)CCOc1ccc(-c2nc(-c3ccncc3)c(-c3ccc4c(c3)CC/C4=N\O)[nH]2)cc1 quantity_name="Phosphatidylserine exposure (%) 24h" endpoint_result=2
compound=Nc1nc(N)c2nc(-c3cccc(O)c3)c(-c3cccc(O)c3)nc2n1 quantity_name="Phosphatidylserine exposure (%) 24h" endpoint_result=2
compound=CN(C)C[C@@H]1CCn2cc(c3ccccc32)C2=C(C(=O)NC2=O)c2cn(c3ccccc23)CCO1 quantity_name="Phosphatidylserine exposure (%) 24h" endpoint_result=2
compound=Oc1ccc2ccccc2c1SSc1c(O)ccc2ccccc12 quantity_name="Phosphatidylserine exposure (%) 24h" endpoint_result=29
